# Test system: recombinant human integrin αvβ6 (Homo sapiens (Human), UniProt P06756+P18564)
# Sequence (P06756 31-992): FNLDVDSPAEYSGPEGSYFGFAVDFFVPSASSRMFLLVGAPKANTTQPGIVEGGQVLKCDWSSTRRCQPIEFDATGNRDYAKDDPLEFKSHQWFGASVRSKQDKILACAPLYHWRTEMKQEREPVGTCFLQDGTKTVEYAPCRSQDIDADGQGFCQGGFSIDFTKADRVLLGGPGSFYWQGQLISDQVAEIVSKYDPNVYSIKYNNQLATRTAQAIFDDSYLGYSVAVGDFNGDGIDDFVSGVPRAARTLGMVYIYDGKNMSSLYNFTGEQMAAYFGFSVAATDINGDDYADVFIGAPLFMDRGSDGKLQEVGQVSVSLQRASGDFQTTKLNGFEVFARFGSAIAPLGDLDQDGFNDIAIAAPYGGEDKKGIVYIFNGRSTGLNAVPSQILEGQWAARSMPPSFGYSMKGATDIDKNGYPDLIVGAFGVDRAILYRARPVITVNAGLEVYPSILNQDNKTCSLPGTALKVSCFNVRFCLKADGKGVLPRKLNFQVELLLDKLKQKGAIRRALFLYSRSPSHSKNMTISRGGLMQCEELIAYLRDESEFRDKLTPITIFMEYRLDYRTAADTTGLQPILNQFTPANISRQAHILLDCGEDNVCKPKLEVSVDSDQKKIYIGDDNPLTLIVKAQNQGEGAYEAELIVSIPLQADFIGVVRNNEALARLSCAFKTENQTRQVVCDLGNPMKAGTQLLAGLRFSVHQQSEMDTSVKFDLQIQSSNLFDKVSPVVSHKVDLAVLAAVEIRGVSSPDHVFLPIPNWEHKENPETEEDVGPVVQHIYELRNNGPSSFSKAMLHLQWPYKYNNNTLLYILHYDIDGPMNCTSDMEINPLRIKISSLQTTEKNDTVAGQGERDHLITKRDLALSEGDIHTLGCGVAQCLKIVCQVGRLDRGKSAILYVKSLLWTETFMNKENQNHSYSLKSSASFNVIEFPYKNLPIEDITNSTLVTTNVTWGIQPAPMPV
# Sequence (P18564 22-707): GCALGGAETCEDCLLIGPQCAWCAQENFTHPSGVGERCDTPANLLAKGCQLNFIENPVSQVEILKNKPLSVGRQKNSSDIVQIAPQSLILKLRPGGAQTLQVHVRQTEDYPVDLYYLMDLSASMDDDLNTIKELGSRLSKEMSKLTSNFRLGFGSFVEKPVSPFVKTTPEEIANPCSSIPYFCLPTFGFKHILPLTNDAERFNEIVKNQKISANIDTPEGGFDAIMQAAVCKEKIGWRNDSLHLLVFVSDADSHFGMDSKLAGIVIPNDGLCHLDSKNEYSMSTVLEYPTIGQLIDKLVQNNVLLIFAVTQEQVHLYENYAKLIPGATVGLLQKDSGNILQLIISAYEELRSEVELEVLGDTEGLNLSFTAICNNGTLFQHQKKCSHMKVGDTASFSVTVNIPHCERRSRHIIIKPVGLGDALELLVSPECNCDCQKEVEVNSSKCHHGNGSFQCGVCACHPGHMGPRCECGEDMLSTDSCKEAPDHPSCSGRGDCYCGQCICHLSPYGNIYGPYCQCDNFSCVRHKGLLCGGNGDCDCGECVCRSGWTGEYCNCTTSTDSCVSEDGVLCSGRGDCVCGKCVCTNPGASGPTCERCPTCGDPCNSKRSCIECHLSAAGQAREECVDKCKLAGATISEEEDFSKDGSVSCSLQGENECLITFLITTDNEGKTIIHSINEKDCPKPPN
# Protocol notes: Solid Phase Integrin αvβ6 Binding Assay (Examples B1, B2)
# Settings: TGFβ1 LAP ligand, values given in four ranges, read-out: αvβ6 Inhibition IC50 (nM)-range
Measured parameter: IC50

> print(dat)
                                    molecule          result
 1  CS(=O)(=O)CCN(CCCCc1ccc2c(n1)NCCC2)CC[C@H](Nc1nc(-c2cccnc2)nc2ccccc12)C(=O)O [Compound 107]  250 to 1000 nM
 2  CO[C@H](C)CN(CCCCc1ccc2c(n1)NCCC2)CC[C@H](Nc1ncc(C(F)(F)F)cn1)C(=O)O [Compound 69]         < 50 nM
 3  COC[C@@H](F)CN(CCCCc1ccc2c(n1)NCCC2)CC[C@H](Nc1cc(-n2cccn2)ncn1)C(=O)O [Compound 108]       > 1000 nM
 4  O=C(O)[C@H](CCN(CCCCc1ccc2c(n1)NCCC2)CC(F)F)Nc1cc(-n2cccn2)ncn1 [Compound 98]       > 1000 nM
 5  O=C(O)[C@H](CCN(CCCCc1ccc2c(n1)NCCC2)CCOc1ccccc1)Nc1cc(-n2cccn2)ncn1 [Compound 91]         < 50 nM
 6  COCCN(CCCCc1ccc2c(n1)NCCC2)CC[C@H](Nc1nc(C(F)(F)F)nc2ccccc12)C(=O)O [Compound 14]         < 50 nM
 7  Cc1ccc(OCCN(CCCCc2ccc3c(n2)NCCC3)CC[C@H](Nc2nc(C)nc3cc(F)ccc23)C(=O)O)cn1 [Compound 56]         < 50 nM
 8  Cn1ncc2c(N[C@@H](CCN(CCCCc3ccc4c(n3)NCCC4)CCOc3ccccc3)C(=O)O)ncnc21 [Compound 82]         < 50 nM
 9  CO[C@H](C)CN(CCCCc1ccc2c(n1)NCCC2)CC[C@H](Nc1ncc(Br)cn1)C(=O)O [Compound 70]         < 50 nM
10  O=C(O)[C@H](CCN(CCCCc1ccc2c(n1)NCCC2)CC(F)F)Nc1ccnc(C(F)(F)F)n1 [Compound 97]       > 1000 nM
11  CO[C@H](C)CN(CCCCc1ccc2c(n1)NCCC2)CC[C@H](Nc1ncnc2[nH]ncc12)C(=O)O [Compound 71]         < 50 nM
12  COCCN(CCCCc1ccc2c(n1)NCCC2)CC[C@H](Nc1cc(C(F)F)ncn1)C(=O)O [Compound 23]         < 50 nM
13  O=C(O)[C@H](CCN(CCCCc1ccc2c(n1)NCCC2)CC1CCO1)Nc1ncnc2ccccc12 (some centres unmarked) [Compound 129]         < 50 nM
14  CO[C@H](C)CN(CCCCc1ccc2c(n1)NCCC2)CC[C@H](Nc1nccnc1C#N)C(=O)O [Compound 76]         < 50 nM
15  CS(=O)(=O)CCN(CCCCc1ccc2c(n1)NCCC2)CC[C@H](Nc1ncc(C(F)(F)F)cn1)C(=O)O [Compound 102]       > 1000 nM
16  COCCN(CCCCc1ccc2c(n1)NCCC2)CC[C@H](Nc1ncnc2cccc(F)c12)C(=O)O [Compound 18]         < 50 nM
17  O=C(O)[C@H](CCN(CCCCc1ccc2c(n1)NCCC2)CCOCC(F)F)Nc1ncnc2ccccc12 [Compound 50]         < 50 nM
18  O=C(O)[C@H](CCN(CCCCc1ccc2c(n1)NCCC2)CCOc1ccccc1)Nc1ncc(C2CC2)cn1 [Compound 117]         < 50 nM
19  O=C(O)[C@H](CCN(CCCCc1ccc2c(n1)NCCC2)CCOc1ccccc1)Nc1ccnc(C(F)(F)F)n1 [Compound 92]         < 50 nM
20  O=C(O)[C@H](CCN(CCCCc1ccc2c(n1)NCCC2)CCOCC(F)(F)F)Nc1ncnc2cccnc12 [Compound 51]         < 50 nM
21  COc1cccc2c(N[C@@H](CCN(CCCF)CCCCc3ccc4c(n3)NCCC4)C(=O)O)ncnc12 [Compound 43]         < 50 nM
22  Cc1cc(C)n(CCN(CCCCc2ccc3c(n2)NCCC3)CC[C@H](Nc2ncnc3ccccc23)C(=O)O)n1 [Compound 45]         < 50 nM
23  COC[C@@H](F)CN(CCCCc1ccc2c(n1)NCCC2)CC[C@H](Nc1ncnc2ccccc12)C(=O)O [Compound 31]         < 50 nM
24  COC[C@@H](F)CN(CCCCc1ccc2c(n1)NCCC2)CC[C@H](Nc1nc(-c2cccnc2)nc2ccccc12)C(=O)O [Compound 109]         < 50 nM
25  COCCN(CCCCc1ccc2c(n1)NCCC2)CC[C@H](Nc1ccnc(C(F)(F)F)n1)C(=O)O [Compound 24]         < 50 nM
26  CN(C)C(=O)CN(CCCCc1ccc2c(n1)NCCC2)CC[C@H](Nc1ncnc2ccccc12)C(=O)O [Compound 64]         < 50 nM
27  COC[C@@H](F)CN(CCCCc1ccc2c(n1)NCCC2)CC[C@H](Nc1ncnc2c1cnn2C)C(=O)O [Compound 105]         < 50 nM
28  Cc1ncccc1OCCN(CCCCc1ccc2c(n1)NCCC2)CC[C@H](Nc1ncnc2cccnc12)C(=O)O [Compound 54]         < 50 nM
29  COCCN(CCCCc1ccc2c(n1)NCCC2)CC[C@H](Nc1ccnc2ccccc12)C(=O)O [Compound 36]       > 1000 nM
